Each recorded value in this set is attributed to patent US11873288B2.

Target protein (sequence): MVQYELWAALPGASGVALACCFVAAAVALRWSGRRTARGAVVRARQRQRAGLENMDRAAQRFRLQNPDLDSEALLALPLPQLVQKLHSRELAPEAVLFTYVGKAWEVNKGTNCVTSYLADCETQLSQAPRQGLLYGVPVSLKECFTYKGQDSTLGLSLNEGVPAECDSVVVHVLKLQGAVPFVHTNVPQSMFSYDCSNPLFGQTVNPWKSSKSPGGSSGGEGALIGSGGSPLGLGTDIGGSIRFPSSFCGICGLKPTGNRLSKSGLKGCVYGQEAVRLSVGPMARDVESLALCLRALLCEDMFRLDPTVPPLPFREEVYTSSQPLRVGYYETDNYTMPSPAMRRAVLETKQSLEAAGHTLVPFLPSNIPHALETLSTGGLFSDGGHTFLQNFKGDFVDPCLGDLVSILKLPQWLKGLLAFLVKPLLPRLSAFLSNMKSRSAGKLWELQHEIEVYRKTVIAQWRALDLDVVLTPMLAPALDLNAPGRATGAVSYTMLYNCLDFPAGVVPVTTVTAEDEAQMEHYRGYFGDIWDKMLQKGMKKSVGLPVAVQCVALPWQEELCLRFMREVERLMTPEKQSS

molecule	Kd [nM]
COc1ccc(NC(=O)N2CCC(c3nc(-c4ccccc4)cs3)CC2)cc1 [Compound B-10]	750
COc1ccc(NC(=O)N2CCC(Cc3cnc4ccccc4c3)CC2)cc1 [Compound B-5]	24
COc1ccc(NC(=O)N2CCC(Cc3ccc4ccccc4c3)CC2)cc1 [Compound B-8]	18
